Test system: ACHN renal
Experiment: NCI-60 one-dose screen, 48 h (100 = growth as untreated, 0 = no growth, -100 = all killed)
Conditions: 10 µM
Compounds without any hit were thinned out: in the full panel of roughly 83,000, 20% have a hit. Calls of active or inactive are those of the source. Rule for the calls: active = growth percent below 10; inactive = the rest.
measuredAttribute: growth

Field: example entries. Status: answers known.
| compound | growth |
| --- | --- |
| CCCCCCCNc1nc(C=O)ncc1-c1ccc(C(F)(F)F)cc1 | 104% (inactive) |
| Nc1c(C(=O)Nc2cccc(F)c2)sc2nc3c(cc12)C(=O)CCC3 | 53.6% (inactive) |
| CSCCCNC(=O)c1ccc2c(c1)/C(=C/c1[nH]c(C)cc1C)C(=O)N2 | 0.349% (active) |
| COc1cc(-c2nn3c(/C=C4/C(=O)Nc5ccccc54)c(-c4ccc(C)cc4)nc3s2)cc(OC)c1OC | 81.1% (inactive) |
| CCCC#CCN(CC)CC | 106% (inactive) |
| CCOC(=O)N1C/C(=C/c2ccc(Cl)cc2)C(=O)/C(=C/c2ccc(Cl)cc2)C1 | 74.7% (inactive) |

Returns the measured growth for the input compound. Input: CCOC(=O)C1(CC(C)C)CCOC1=O (stereo not given)
98.2% (inactive)

Returns the measured growth for the input compound. Input: CCCCCCc1cc(N=Nc2ccc(S(=O)(=O)Nc3cc(C)nc(C)n3)cc2)c(O)cc1O
99.1% (inactive)

Returns the measured growth for the input compound. Input: COc1cc2c(cc1OCCCCCCN1CCN(CC(=O)Nc3ccc(Cl)cc3C(=O)c3ccccc3Cl)CC1)N=CC1CCCN1C2=O (stereo not given)
-100% (active)

Returns the measured growth for the input compound. Input: O=C(c1cccs1)c1ccccc1Cc1ccccc1
100% (inactive)

Returns the measured growth for the input compound. Input: CC(=O)n1c(-c2ccc(Cl)c(Cl)c2)cn(-c2ccc(Cl)cc2)c1=O
22.8% (inactive)

Returns the measured growth for the input compound. Input: CCOC(=O)C(=Cc1ccc(Br)cc1)C(=O)OCC
-81% (active)

Returns the measured growth for the input compound. Input: Cn1c([N+](=O)[O-])cnc1/C=C1\Oc2ccccc2C1=O
3.1% (active)
